- System: PC-3 multi-cell spheroids, viability
- Protocol: Anticancer human tumor PC-3 cell line growth inhibition [IpAb]; active = viability on the fitted dose curve at most 10% of control; inactive = the rest;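 note: spheroids exposed to compounds for 7 days before readout; 100% = DMSO vehicle control wells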
- Assay context: second compound 1 µM; first compound 0.01 µM
Outcomes: t for active, f for inactive

CC(C)n1nc(-c2ccc3oc(N)nc3c2)c2c(N)ncnc21 + CC(C)NCC(C(=O)N1CCN(c2ncnc3c2C(C)CC3O)CC1)c1ccc(Cl)cc1 : t
COc1c(OCCCN2CCOCC2)ccc2c3n(c(=NC(=O)c4cnc(N)nc4)nc12)CCN3 + CC(C)NCC(C(=O)N1CCN(c2ncnc3c2C(C)CC3O)CC1)c1ccc(Cl)cc1 : f
CC(C)n1nc(-c2ccc3oc(N)nc3c2)c2c(N)ncnc21 + CCN1CCN(Cc2ccc(Nc3ncc(F)c(-c4cc(F)c5nc(C)n(C(C)C)c5c4)n3)nc2)CC1 : f
COc1c(OCCCN2CCOCC2)ccc2c3n(c(=NC(=O)c4cnc(N)nc4)nc12)CCN3 + CCN1CCN(Cc2ccc(Nc3ncc(F)c(-c4cc(F)c5nc(C)n(C(C)C)c5c4)n3)nc2)CC1 : f
Cn1ncnc1[C@H]1c2n[nH]c(=O)c3cc(F)cc(c23)N[C@@H]1c1ccc(F)cc1 + CC(C)NCC(C(=O)N1CCN(c2ncnc3c2C(C)CC3O)CC1)c1ccc(Cl)cc1 : f
Cn1ncnc1[C@H]1c2n[nH]c(=O)c3cc(F)cc(c23)N[C@@H]1c1ccc(F)cc1 + CCN1CCN(Cc2ccc(Nc3ncc(F)c(-c4cc(F)c5nc(C)n(C(C)C)c5c4)n3)nc2)CC1 : f

---

- Test system: PC-3 multi-cell spheroids, viability
- Protocol: Anticancer human tumor PC-3 cell line growth inhibition [IpAb];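 note: spheroids exposed to compounds for 7 days before readout; 100% = DMSO vehicle control wells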
- Assay context: second compound 0.316 µM; first compound 0.00949 µM; active compounds read low
Entries and their measured viability, T/C follow.
Measured parameter: viability, T/C (%)

Cn1cnc2c(F)c(Nc3ccc(Br)cc3Cl)c(C(=O)NOCCO)cc21 + CC(C)NCC(C(=O)N1CCN(c2ncnc3c2C(C)CC3O)CC1)c1ccc(Cl)cc1 : 46.5
CC(C)(C)c1cnc(CSc2cnc(NC(=O)C3CCNCC3)s2)o1 + CC(C)NCC(C(=O)N1CCN(c2ncnc3c2C(C)CC3O)CC1)c1ccc(Cl)cc1 : 49.9
CC(=O)c1c(C)c2cnc(Nc3ccc(N4CCNCC4)cn3)nc2n(C2CCCC2)c1=O + CC(C)NCC(C(=O)N1CCN(c2ncnc3c2C(C)CC3O)CC1)c1ccc(Cl)cc1 : 43.8
CC(=O)c1c(C)c2cnc(Nc3ccc(N4CCNCC4)cn3)nc2n(C2CCCC2)c1=O + CCN1CCN(Cc2ccc(Nc3ncc(F)c(-c4cc(F)c5nc(C)n(C(C)C)c5c4)n3)nc2)CC1 : 63.1
CC(C)(C)c1cnc(CSc2cnc(NC(=O)C3CCNCC3)s2)o1 + CCN1CCN(Cc2ccc(Nc3ncc(F)c(-c4cc(F)c5nc(C)n(C(C)C)c5c4)n3)nc2)CC1 : 55.9
Cn1cnc2c(F)c(Nc3ccc(Br)cc3Cl)c(C(=O)NOCCO)cc21 + CCN1CCN(Cc2ccc(Nc3ncc(F)c(-c4cc(F)c5nc(C)n(C(C)C)c5c4)n3)nc2)CC1 : 60.2

---

- Test system: PC-3 multi-cell spheroids, viability
- Protocol: Anticancer human tumor PC-3 cell line growth inhibition [IpAb];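 note: spheroids exposed to compounds for 7 days before readout; 100% = DMSO vehicle control wells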
- Assay context: second compound 0.1 µM; first compound 0.316 µM; active compounds read low
Reported viability, T/C is given for each of the following compounds.
Measured parameter: viability, T/C (%)

CC1(C)CCC(CN2CCN(c3ccc(C(=O)NS(=O)(=O)c4ccc(NCC5CCOCC5)c([N+](=O)[O-])c4)c(Oc4cnc5[nH]ccc5c4)c3)CC2)=C(c2ccc(Cl)cc2)C1 + CCN1CCN(Cc2ccc(Nc3ncc(F)c(-c4cc(F)c5nc(C)n(C(C)C)c5c4)n3)nc2)CC1 : 58.7
Cn1ncc(Cl)c1-c1cc(C(=O)NC(CN)Cc2cccc(F)c2)sc1Cl (stereo not drawn) + CC(C)NCC(C(=O)N1CCN(c2ncnc3c2C(C)CC3O)CC1)c1ccc(Cl)cc1 : 34.3
C=CC(=O)N1CCN(c2nc(=O)n(-c3c(C)ccnc3C(C)C)c3nc(-c4c(O)cccc4F)c(F)cc23)C(C)C1 (stereo not drawn) + CC(C)NCC(C(=O)N1CCN(c2ncnc3c2C(C)CC3O)CC1)c1ccc(Cl)cc1 : 72.8
